Assay: Quantitative highthroughput screen to assess conditional lethalithy of NOMO1 cells grown in Human Plasma-Like Medium with dialyzed fetal bovine serum (HPLM+ds) (AID 1963878); also: nearly all actives have a fitted effect of over 35% in size
Conditions: NOMO1 AML cells in HPLM+ds, CellTiter-Glo viability, 48 h; series mostly up to 45.8 µM
Results filed as inconclusive are left out. The source made the active and inactive calls. Calls follow the shape of the dose curve; as a rule, active = well fitted cell-killing curve with a large enough effect; inconclusive = small, poorly fitted or top-dose-only effect, or effect the other way; inactive = no such curve, though single readings can be large or run the other way.
Outcomes: True = active, False = inactive

[[record]]
compound = "Cc1ccc([N+](=O)[O-])cc1S(=O)(=O)N(C)N=Cc1cnc2ccc(Br)cn12"
class = "True"

[[record]]
compound = "CCCCN(CCCC)CCC(O)c1cc2c(Cl)cc(Cl)cc2c2cc(C(F)(F)F)ccc12 (stereo not given)"
class = "False"

[[record]]
compound = "CC(=O)NC(C)c1ccc(Oc2ccc(OC(C)C)cc2)cc1 (stereo not given)"
class = "False"

[[record]]
compound = "O=C(Nc1cccnc1)N1CCC(Cc2cccc(Oc3ccc(C(F)(F)F)cn3)c2)CC1"
class = "True"

[[record]]
compound = "CN(C)S(=O)(=O)c1ccc2c(c1)C(=Cc1cc3c([nH]1)CCCC3)C(=O)N2"
class = "False"

[[record]]
compound = "CCN(CC)CCn1c(=O)c(Cc2ccc(OC)cc2)nc2ccccc21"
class = "False"

[[record]]
compound = "Clc1ccc2c(N3CCN(CCCN4CCN(c5ccnc6cc(Cl)ccc56)CC4)CC3)ccnc2c1"
class = "False"

[[record]]
compound = "CN1C[C@H]2c3ccccc3Oc3ccc(Cl)cc3[C@@H]2C1"
class = "False"

[[record]]
compound = "COc1ccc2c(Oc3ccc(NC(=O)c4c(C)n(CC(C)(C)O)n(-c5ccccc5)c4=O)cc3F)ccnc2c1"
class = "False"

[[record]]
compound = "O=P(O)(O)C(O)(Cc1cccnc1)P(=O)(O)O"
class = "False"


----------
Assay: Viability qHTS for spleen associated tyrosine kinase inhibitor (SYKi) drug resistant MV4-11 cells (AID 1963824); also: nearly all actives have a fitted effect of over 35% in size
Details: SYKi-resistant MV4-11 viability, CellTiter-Glo, 72 h; series mostly up to 45 µM
Records with an inconclusive call do not appear. Activity calls are given as the source filed them. Calls come from the whole dose curve; as a rule, active = well fitted cell-killing curve with a large enough effect; inconclusive = small, poorly fitted or top-dose-only effect, or effect the other way; inactive = no such curve, though single readings can be large or run the other way.
Outcomes: T = active, F = inactive

[[record]]
compound = "CO[C@H]1/C=C/[C@@](C)(O)/C=C/C(=O)O[C@H](C)[C@@H](C)CC/C=C/1C"
class = "T"

[[record]]
compound = "Cc1noc(C)c1-c1cc(O)cc(C(O)c2ccccc2)c1 (stereo not drawn)"
class = "T"

[[record]]
compound = "CCC1=CC2CN(C1)Cc1c([nH]c3ccccc13)[C@@](C(=O)OC)(c1cc3c(cc1OC)N(C)[C@H]1[C@@](O)(C(=O)OC)[C@H](OC(C)=O)[C@]4(CC)C=CCN5CC[C@]31[C@@H]54)C2 (stereo partly drawn)"
class = "T"

[[record]]
compound = "COc1c2c(c(C)c3c1C(=O)OC3)OC1(C)CC(O)C34OC(OC)(CC(O)C3(C)C1C2)OC4(C)C (stereo not drawn)"
class = "T"

[[record]]
compound = "COc1c2occc2c(OC)c2c(=O)cc(C)oc12"
class = "F"

[[record]]
compound = "CCOc1cc(CC(=O)NC(CC(C)C)c2ccccc2N2CCCCC2)ccc1C(=O)O (stereo not drawn)"
class = "F"

[[record]]
compound = "CSCC[C@H](NC(=O)[C@H](CO)NC(=O)[C@H](CCC(=O)O)NC(C)=O)C(=O)N[C@H](C=O)CC(=O)O"
class = "T"

[[record]]
compound = "CS(=O)(=O)c1ccc(-c2cnc(N)c(C(=O)Nc3ccccc3)n2)cc1"
class = "T"


src = PubChem BioAssay (NCATS)
